TEST NAME: blockers of RIG-like receptor reporter activation – cell-based, Sendai virus stimulus, luciferase, 10K MLSCN set, TLR/RLR signaling modifier project, primary screen (AID 602276);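 note: firefly luciferase from ISG56 promoter only with Renilla not read in this screen; 0% = Sendai virus plus DMSO and 100% = medium plus DMSO without virus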
DETAILS: HEK293 RL24 IRF3 luciferase reporter, at 10 µM, stronger effect = higher value
Attribute: inhibition
Write it as a number; the unit % goes unstated.

Known inhibition results, listed for orientation:
COc1ccc(CNC(=O)c2nnn(Cc3ccc(OC)cc3)c2N)cc1 : 12.2
CC(=O)c1coc2ccc(OCC(=O)O)cc12 : 6.78
CCOC(=O)c1sc(NC(=O)CSc2nnc3c4ccccc4n(CC)c3n2)nc1C : -6.56
CCOc1ccc(N(CC(=O)Nc2cccc(OC)c2)S(=O)(=O)c2c(C)noc2C)cc1 : 24.2
Nn1c(SCC(=O)NC2CCCCC2)nnc1-c1ccc(Cl)cc1 : 14.6

Okay, next one:
In: Reported inhibition for `Cc1cc(=O)oc2c1ccc1oc(/C(=N/O)c3ccccc3)c(C)c12` : what is it?
Out: 7.72

---

TEST NAME: endothelial E-selectin expression blockers – imaging, HUVEC, immunofluorescence, MLSMR starter and 10KST1 sets, primary screen (AID 487);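 note: 100% = median nuclei count of all wells on the same plate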
DETAILS: HUVEC TNFalpha-induced E-selectin immunofluorescence imaging, at 2 µM; measured here: cell number, toxicity
MEASURE: nuclei count (%)
Write it as a number; the unit % goes unstated.

Known nuclei count results, listed for orientation:
CC(C)Cc1cc(C(=O)Nc2c(F)cc(F)cc2Br)no1 : 120
O=C(NCc1ccc(F)cc1)c1cc2ccccn2n1 : 107
c1ccc(-c2cnc(CSc3ncnc4sccc34)o2)cc1 : 109
Cc1ccc(C)c(N(CC(=O)NCc2ccco2)C(=O)CCC(=O)Nc2ccccn2)c1 : 105
OC(CN1CCN(c2ccccn2)CC1)Cn1c2ccccc2c2ccccc21 (centres undefined) : 107

In: Reported nuclei count for `Nc1nnc(SCc2cc3c(cc2Cl)OCO3)s1` : what is it?
Out: 111

In: Reported nuclei count for `COc1ccccc1Cn1c(-c2ccco2)nc2nc3ccccc3nc21` : what is it?
Out: 117

In: Reported nuclei count for CC(C)(C)NC(=O)C(c1ccco1)N(C(=O)Cn1nnc(-c2ccc(F)cc2)n1)c1ccccc1F (centres undefined) : what is it?
Out: 127

In: Reported nuclei count for `CCCCc1cc(=O)oc2cc(OCC(=O)N(CC)CC)c(Cl)cc12` : what is it?
Out: 123

---

Attribute: fluorescence slope
TARGET DESC: Voltage-gated potassium channel subunit beta-2 (Rattus norvegicus)
TEST NAME: inhibitors of rat Kvbeta2 reductase activity – biochemical, NADPH fluorescence, primary screen (AID 622);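 note: slope of raw intensity against log time taken from 70 to 1610 s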
DETAILS: recombinant KvBeta, 4-cyanobenzaldehyde reduction, at 10 µM, stronger effect = higher value
Number, no unit, nothing else.

Known fluorescence slope results, listed for orientation:
O=C(Nc1nccs1)c1ccc(COc2ccccc2Br)o1 : -0.487
CCc1nnc2n1N=C(c1ccc(-c3ccc(Cl)cc3Cl)o1)CS2 : -0.607
COc1ccc2[nH]c(=O)c(CN(CC3CCCO3)C(=O)Nc3ccc(F)cc3)cc2c1 (stereo not given) : -0.512

In: Reported fluorescence slope for `O=C(CSc1nnc(-c2c[nH]c3ccccc23)o1)N(Cc1ccccc1)c1ccc(F)cc1` : what is it?
Out: -0.6

In: Reported fluorescence slope for `O=C(NCc1ccco1)c1csc(Nc2ccccc2Cl)n1` : what is it?
Out: -0.503

In: Reported fluorescence slope for C/C(=N\O)C(C)/[N+]([O-])=C/c1nc(C)c(C)n1O (stereo not given) : what is it?
Out: -0.492

In: Reported fluorescence slope for `CCCc1ccc(Oc2cn[nH]c2-c2ccc(O)c(C)c2O)cc1` : what is it?
Out: -0.602

In: Reported fluorescence slope for `CCOC(=O)c1cn(CC)c2cc(N3CCOCC3)c(F)cc2c1=O` : what is it?
Out: -0.592

In: Reported fluorescence slope for `COc1c(C(=O)Nc2c(C)n(C)n(-c3ccccc3)c2=O)ccc2ccccc12` : what is it?
Out: -0.512

In: Reported fluorescence slope for OC(COc1ccccc1)CN1C2=NCCCN2c2ccccc21 (stereo not given) : what is it?
Out: -0.608
